# Tested on: LXRb:RXRa (NR concentration 270 nM, RXRa partner concentration 90 nM)
# METHOD NOTES: PBM binding z-score (relative to random genomic background probes); higher = stronger binding; sequences stand for … in GC…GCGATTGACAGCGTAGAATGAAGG
Recorded PBM binding z-score for the following sequences
Please reply with the value in numeric form only.

Known results for sequences:
{"ITEM SEQUENCE": "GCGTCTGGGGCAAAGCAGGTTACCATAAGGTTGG", "MEASUREMENT TARGET": "LXRb:RXRa (NR concentration 270 nM, RXRa partner concentration 90 nM)", "PBM binding z-score": 0.26}
{"ITEM SEQUENCE": "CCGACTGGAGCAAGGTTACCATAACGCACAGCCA", "MEASUREMENT TARGET": "LXRb:RXRa (NR concentration 270 nM, RXRa partner concentration 90 nM)", "PBM binding z-score": 0.511}
{"ITEM SEQUENCE": "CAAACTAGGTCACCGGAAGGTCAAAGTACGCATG", "MEASUREMENT TARGET": "LXRb:RXRa (NR concentration 270 nM, RXRa partner concentration 90 nM)", "PBM binding z-score": 5.83}
{"ITEM SEQUENCE": "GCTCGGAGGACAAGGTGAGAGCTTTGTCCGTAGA", "MEASUREMENT TARGET": "LXRb:RXRa (NR concentration 270 nM, RXRa partner concentration 90 nM)", "PBM binding z-score": -0.463}
{"ITEM SEQUENCE": "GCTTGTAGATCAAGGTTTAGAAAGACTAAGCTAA", "MEASUREMENT TARGET": "LXRb:RXRa (NR concentration 270 nM, RXRa partner concentration 90 nM)", "PBM binding z-score": -0.532}
{"ITEM SEQUENCE": "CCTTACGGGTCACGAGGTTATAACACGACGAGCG", "MEASUREMENT TARGET": "LXRb:RXRa (NR concentration 270 nM, RXRa partner concentration 90 nM)", "PBM binding z-score": 4.2}

The reported LXRb:RXRa (NR concentration 270 nM, RXRa partner concentration 90 nM) PBM binding z-score of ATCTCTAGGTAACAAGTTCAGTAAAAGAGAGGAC is 0.953

The reported LXRb:RXRa (NR concentration 270 nM, RXRa partner concentration 90 nM) PBM binding z-score of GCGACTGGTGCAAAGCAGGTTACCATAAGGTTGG is -0.35

The reported LXRb:RXRa (NR concentration 270 nM, RXRa partner concentration 90 nM) PBM binding z-score of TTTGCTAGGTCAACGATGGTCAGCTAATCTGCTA is 2.07

The reported LXRb:RXRa (NR concentration 270 nM, RXRa partner concentration 90 nM) PBM binding z-score of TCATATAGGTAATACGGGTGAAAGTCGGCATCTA is 0.839

The reported LXRb:RXRa (NR concentration 270 nM, RXRa partner concentration 90 nM) PBM binding z-score of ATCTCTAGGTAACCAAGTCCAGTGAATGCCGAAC is 0.0348

The reported LXRb:RXRa (NR concentration 270 nM, RXRa partner concentration 90 nM) PBM binding z-score of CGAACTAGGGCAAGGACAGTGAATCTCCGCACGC is -0.81

The reported LXRb:RXRa (NR concentration 270 nM, RXRa partner concentration 90 nM) PBM binding z-score of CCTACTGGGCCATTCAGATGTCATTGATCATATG is -0.292

The reported LXRb:RXRa (NR concentration 270 nM, RXRa partner concentration 90 nM) PBM binding z-score of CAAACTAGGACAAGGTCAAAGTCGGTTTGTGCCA is 3.48

The reported LXRb:RXRa (NR concentration 270 nM, RXRa partner concentration 90 nM) PBM binding z-score of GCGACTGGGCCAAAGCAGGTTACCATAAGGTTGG is -0.554

---

# Test system: RARb homodimer (NR concentration 270 nM)
# METHOD NOTES: PBM binding z-score (relative to random genomic background probes); higher = stronger binding; sequences stand for … in GC…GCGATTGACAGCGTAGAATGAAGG
Kind request: treat 3 as inclusive, so PBM binding z-score at 3 or higher is Met, anything lower is Not met.

A selection of reference data follows.
{"ITEM SEQUENCE": "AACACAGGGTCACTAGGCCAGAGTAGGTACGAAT", "GROUP LABEL": "Met"}
{"ITEM SEQUENCE": "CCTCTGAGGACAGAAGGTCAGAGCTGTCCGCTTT", "GROUP LABEL": "Met"}
{"ITEM SEQUENCE": "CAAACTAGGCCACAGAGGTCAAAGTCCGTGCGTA", "GROUP LABEL": "Met"}
{"ITEM SEQUENCE": "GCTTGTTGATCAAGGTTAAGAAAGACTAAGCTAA", "GROUP LABEL": "Not met"}

Continue with the sequence presented below.
Req: Determine whether measured PBM binding z-score meets or exceeds 3 for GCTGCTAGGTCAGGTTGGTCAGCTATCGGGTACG
Resp: Not met

---

Recorded PBM binding z-score for the following sequences
# Test system: PPARg:RXRa DBDmut IVT, anti-RXR (DBD mutation: RXRa K156A/R161A, NR concentration 270 nM, RXRa partner concentration 90 nM)
# METHOD NOTES: PBM binding z-score (relative to random genomic background probes); higher = stronger binding; sequences stand for … in GC…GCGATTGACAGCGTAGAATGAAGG
Please reply with the value in numeric form only.

Known results for sequences:
{"ITEM SEQUENCE": "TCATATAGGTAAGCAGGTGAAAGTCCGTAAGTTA", "PBM binding z-score": 4.03}
{"ITEM SEQUENCE": "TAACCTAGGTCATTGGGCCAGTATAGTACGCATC", "PBM binding z-score": 4.7}

Please examine the following record next.
Reported PBM binding z-score for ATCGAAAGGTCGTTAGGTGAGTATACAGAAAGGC was 0.388

---

# Tested on: LXRa homodimer (NR concentration 270 nM)
# METHOD NOTES: PBM binding z-score (relative to random genomic background probes); higher = stronger binding; sequences stand for … in GC…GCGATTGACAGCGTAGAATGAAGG
Kind request: treat 0.4 as inclusive, so PBM binding z-score at 0.4 or higher is Fulfilled, anything lower is Not fulfilled.

{"ITEM SEQUENCE": "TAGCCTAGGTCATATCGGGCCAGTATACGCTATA", "GROUP LABEL": "Fulfilled"}

Req: Determine whether measured PBM binding z-score meets or exceeds 0.4 for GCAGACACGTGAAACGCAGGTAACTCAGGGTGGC
Resp: Not fulfilled

Req: Determine whether measured PBM binding z-score meets or exceeds 0.4 for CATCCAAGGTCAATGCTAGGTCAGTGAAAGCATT
Resp: Fulfilled

Req: Determine whether measured PBM binding z-score meets or exceeds 0.4 for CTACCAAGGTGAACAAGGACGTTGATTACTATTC
Resp: Not fulfilled

Req: Determine whether measured PBM binding z-score meets or exceeds 0.4 for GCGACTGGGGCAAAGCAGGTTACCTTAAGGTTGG
Resp: Not fulfilled

Req: Determine whether measured PBM binding z-score meets or exceeds 0.4 for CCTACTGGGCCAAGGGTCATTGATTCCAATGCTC
Resp: Not fulfilled

Req: Determine whether measured PBM binding z-score meets or exceeds 0.4 for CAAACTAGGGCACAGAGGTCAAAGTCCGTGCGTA
Resp: Fulfilled

Req: Determine whether measured PBM binding z-score meets or exceeds 0.4 for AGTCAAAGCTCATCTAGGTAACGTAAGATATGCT
Resp: Not fulfilled

Req: Determine whether measured PBM binding z-score meets or exceeds 0.4 for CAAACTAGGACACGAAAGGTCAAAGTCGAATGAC
Resp: Fulfilled

Req: Determine whether measured PBM binding z-score meets or exceeds 0.4 for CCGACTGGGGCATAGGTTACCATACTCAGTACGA
Resp: Not fulfilled

Req: Determine whether measured PBM binding z-score meets or exceeds 0.4 for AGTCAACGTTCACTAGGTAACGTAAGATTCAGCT
Resp: Not fulfilled

Req: Determine whether measured PBM binding z-score meets or exceeds 0.4 for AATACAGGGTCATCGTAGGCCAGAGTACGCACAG
Resp: Fulfilled

Req: Determine whether measured PBM binding z-score meets or exceeds 0.4 for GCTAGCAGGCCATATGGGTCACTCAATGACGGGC
Resp: Not fulfilled

---

# Tested on: VDR:RXRa (NR concentration 270 nM, RXRa partner concentration 90 nM)
# METHOD NOTES: PBM binding z-score (relative to random genomic background probes); higher = stronger binding; sequences stand for … in GC…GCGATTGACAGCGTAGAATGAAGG
METRIC: PBM binding z-score
Please reply with the value in numeric form only.

Known results for sequences:
{"ITEM SEQUENCE": "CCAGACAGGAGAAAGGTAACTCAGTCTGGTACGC", "MEASUREMENT": 0.0971}
{"ITEM SEQUENCE": "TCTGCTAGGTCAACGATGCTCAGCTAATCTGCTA", "MEASUREMENT": 1.15}
{"ITEM SEQUENCE": "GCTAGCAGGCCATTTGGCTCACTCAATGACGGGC", "MEASUREMENT": -0.942}

Reported PBM binding z-score for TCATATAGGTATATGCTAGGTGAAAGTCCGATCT was 0.832

Reported PBM binding z-score for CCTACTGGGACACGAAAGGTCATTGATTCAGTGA was 4.06

Reported PBM binding z-score for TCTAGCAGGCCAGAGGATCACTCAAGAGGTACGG was -0.662

Reported PBM binding z-score for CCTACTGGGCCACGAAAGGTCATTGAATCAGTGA was 4.14

Reported PBM binding z-score for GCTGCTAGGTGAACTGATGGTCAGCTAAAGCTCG was -0.124

Reported PBM binding z-score for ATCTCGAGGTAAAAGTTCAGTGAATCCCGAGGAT was 1.7

Reported PBM binding z-score for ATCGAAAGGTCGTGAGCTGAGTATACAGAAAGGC was 2.95

Reported PBM binding z-score for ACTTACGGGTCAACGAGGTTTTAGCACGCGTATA was 6.69

Reported PBM binding z-score for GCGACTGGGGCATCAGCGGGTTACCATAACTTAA was -0.262

Reported PBM binding z-score for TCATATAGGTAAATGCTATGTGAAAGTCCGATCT was 0.852

Reported PBM binding z-score for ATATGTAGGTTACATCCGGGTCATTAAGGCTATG was 4.54
